Test system: BXPC-3
method_notes: Growth inhibition of human BxPC3 cells after 48 hrs by MTT assay
Assay type: functional, cell-based
condition_notes: BXPC-3, 48 h
assay_endpoint: IC50

// worked examples, IC50 included
COc1ccc2c(c1)c(C1CC(c3ccncc3)=NO1)cn2Cc1ccc(Cl)cc1 (centres undefined) | > 100 µM
c1ccc2c(C3CC(c4ccc5c(c4)OCO5)=NO3)c[nH]c2c1 (centres undefined) | 27 µM

Please provide the recorded IC50 for COc1ccc2c(C3CC(c4ccncc4)=NO3)cn(Cc3ccc(Cl)cc3)c2c1 (centres undefined) , tested on BXPC-3. > 100 µM

Follow-up entry: COc1ccc2[nH]cc(C3CC(c4cc(OC)c(OC)c(OC)c4)=NO3)c2c1 (centres undefined) > 100 µM

* * *

Tested on: MDA-MB-231
method_notes: Growth inhibition of human MDA-MB-231 cells after 48 hrs by MTT assay
Type: functional, cell-based
condition_notes: MDA-MB-231, 48 h
pIC50: −log10 of the molar value.
assay_endpoint: pIC50

// worked examples, pIC50 included
c1ccc2c(C3CC(c4ccc5c(c4)OCO5)=NO3)c[nH]c2c1 (stereo not drawn) | 4.58
c1ccc2c(C3CC(c4ccncc4)=NO3)c[nH]c2c1 (stereo not drawn) | 4.71

(P) COc1ccc2[nH]cc(C3CC(c4cc(OC)c(OC)c(OC)c4)=NO3)c2c1 (stereo not drawn)
(Q) COc1cc(C2=NOC(c3c[nH]c4ccccc34)C2)cc(OC)c1OC (stereo not drawn)
(R) Fc1ccc2c(C3CC(c4ccncc4)=NO3)c[nH]c2c1 (stereo not drawn)
Give the ascending ranking of the items by reported pIC50. Order the labels as requested and give them as your answer. P, Q, R
(P: 4.59, Q: 4.93, R: 5.30)

* * *

Tested on: BXPC-3
method_notes: Growth inhibition of human BxPC3 cells after 48 hrs by MTT assay
Type: functional, cell-based
condition_notes: BXPC-3, 48 h
pIC50: −log10 of the molar value.
assay_endpoint: pIC50

COc1ccc2[nH]cc(C3CC(c4ccncc4)=NO3)c2c1 (stereo not given) | 4.16
COc1ccc2c(C3CC(c4ccncc4)=NO3)c[nH]c2c1 (stereo not given) | 5.02
Fc1ccc2c(C3CC(c4ccncc4)=NO3)c[nH]c2c1 (stereo not given) | 5.02
Cc1c(C2CC(c3ccncc3)=NO2)c2ccccc2n1Cc1ccc(Cl)cc1 (stereo not given) | 4.87

(a) COc1cccc2c1C(=O)c1c(O)c3c(c(O)c1C2=O)C[C@@](O)(C(=O)CO)C[C@@H]3O[C@H]1C[C@H](N)[C@H](O)[C@H](C)O1 [DOXORUBICIN]
(b) Cc1[nH]c2ccccc2c1C1CC(c2ccncc2)=NO1 (stereo not given)
Field: lower pIC50 | Options: a / b Write down the label attached to your selection. b
(b: 4.02, a: 5.04)

(1) c1ccc2c(C3CC(c4ccncc4)=NO3)c[nH]c2c1 (stereo not given)
(2) COc1cc(C2=NOC(c3c[nH]c4ccccc34)C2)cc(OC)c1OC (stereo not given)
Field: lower pIC50 | Options: 1 / 2 Write down the label attached to your selection. 1
(1: 4.52, 2: 4.87)

* * *

Tested on: MDA-MB-231
method_notes: Growth inhibition of human MDA-MB-231 cells after 48 hrs by MTT assay
Assay type: functional, cell-based
condition_notes: MDA-MB-231, 48 h
pIC50: −log10 of the molar value.
assay_endpoint: pIC50

// worked examples, pIC50 included
Cc1c(C2CC(c3ccncc3)=NO2)c2ccccc2n1Cc1ccc(Cl)cc1 (stereo not drawn) | 5.18
COc1ccc2c(c1)c(C1CC(c3ccncc3)=NO1)cn2Cc1ccc(Cl)cc1 (stereo not drawn) | 4.59

(1) Cc1[nH]c2ccccc2c1C1CC(c2ccncc2)=NO1 (stereo not drawn)
(2) COc1ccc2c(C3CC(c4ccncc4)=NO3)c[nH]c2c1 (stereo not drawn)
(3) Clc1ccc(Cn2cc(C3CC(c4ccncc4)=NO3)c3ccccc32)cc1 (stereo not drawn)
Order the items by recorded pIC50; the first position goes to the largest value. Order the labels as requested and give them as your answer. 2, 3, 1
(2: 5.13, 3: 4.86, 1: 4.58)

* * *

Test system: MDA-MB-231
method_notes: Growth inhibition of human MDA-MB-231 cells after 48 hrs by MTT assay
Format: functional, cell-based
condition_notes: MDA-MB-231, 48 h
pIC50: −log10 of the molar value.
# pIC50 annotations

COc1ccc(C2=NOC(c3c[nH]c4ccccc34)C2)cc1OC (stereo not drawn) | < 4.00

Query: pIC50; subject: COc1ccc2c(C3CC(c4ccncc4)=NO3)cn(Cc3ccc(Cl)cc3)c2c1 (stereo not drawn) < 4.00

Follow-up entry: COc1ccc2[nH]cc(C3CC(c4ccncc4)=NO3)c2c1 (stereo not drawn) < 4.00
